# System: Plasmodium falciparum
# protocolDetails: GSK_TCMDC: Inhibition of Plasmodium falciparum Dd2 in whole red blood cells, using parasite LDH activity as an index of growth. Test compounds present at 2uM
# Assay type: functional
Measured Inhibition of individual entries

molecule: CN(C)CCCOc1cccc(NC(=O)Nc2ccc(-c3ccccc3)cc2)c1.O=C(O)C(F)(F)F
Inhibition, %: 14
//
molecule: O=C(/C=C/c1ccccc1Cl)Nc1ccc(Br)c(OCCN2CCC(O)(c3ccccc3)CC2)c1.O=C(O)C(=O)O
Inhibition, %: 85
//
molecule: CCCN1CCN(CCCNC(=O)c2cc3c(Cl)nc4ccc(C)cc4c3s2)CC1
Inhibition, %: 27
//
molecule: Fc1ccc2nc(Nc3nc(-c4ccccn4)cs3)sc2c1
Inhibition, %: 100
//
molecule: CO/C(=C\C=C\c1cc2cc(Cl)c(Cl)cc2[nH]1)C(=O)NCCCN1CCN(c2cccc(CCO)c2)CC1
Inhibition, %: 32
//
molecule: Cc1cc(NC2CCN(CC3CCCCC3)C2)nc(Nc2ccc(Cl)cc2)n1 (centres undefined)
Inhibition, %: 83
//
molecule: CNCCNC(=O)C1Cc2c([nH]c3c(C)cccc23)C(c2ccc(Cl)c(Cl)c2)N1 (centres undefined)
Inhibition, %: 60
//
molecule: O=C(N[C@@H](Cc1ccccc1)C(=O)NCCN1CCCC1)c1ccc(O)c(-c2ccc(Cl)c(Cl)c2)c1
Inhibition, %: 46
//
molecule: CN(CC(=O)Nc1ccc(F)c(F)c1F)c1ncnc2sc(-c3ccccc3)cc12
Inhibition, %: 34
